Target: T1, SG115v2 (human, UniProt P01857 1-328 = IgG part)
T1 construct: Carries the CH3 modifications of SG115 (Leu428, Ala434, Arg438, Glu440, EU); Construct used in the ELISA is not described beyond the constant region; also called modified IgG heavy chain constant region SG115v2
T1 sequence (P01857 other isoform, or with tags, fused parts or gaps limits assumed): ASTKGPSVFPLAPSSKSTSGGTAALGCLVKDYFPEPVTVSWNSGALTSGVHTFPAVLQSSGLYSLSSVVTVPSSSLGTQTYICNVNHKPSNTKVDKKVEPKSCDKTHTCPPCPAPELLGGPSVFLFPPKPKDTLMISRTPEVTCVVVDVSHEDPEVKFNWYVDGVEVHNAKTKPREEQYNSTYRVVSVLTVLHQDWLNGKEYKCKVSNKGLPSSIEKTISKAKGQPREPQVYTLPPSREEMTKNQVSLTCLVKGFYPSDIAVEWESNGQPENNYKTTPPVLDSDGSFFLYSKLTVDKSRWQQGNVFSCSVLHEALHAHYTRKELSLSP
Test: ELISA, OD405 against dose (ng/mL, log axis 1-100)

# binder, binding result
rows = [
    ("SKA0171 (antibody, V domains shown, Recombinant rabbit monoclonal from B-cell cloning, expressed in FreeStyle 293-F cells; the first screen used B-cell culture supernatant; also called Anti-SG115 Antibody; rabbit Anti Fc-Mutation Antibody) VH: QSLEESGGGLVQPEGSLTLSCTASGFSFSSSYYMCWVRQAPGKGLEWIACIYGGNSVITYYANWAKGRFTISETSSTTVTLQMTSLTAADTATYFCAREVHYDYLYTTYGYANLWGPGTLVTVSS VL: AIKMTQTPASVSAVVGGTVTINCQASETIYSGLAWYQQKPGQPPKLLIYDTANLETGVSSRFKGSGSGTEYTLTISDLECDDAATYFCLYAYYSGGSADNAFGGGTEVVVKG", "binds"),
    ("SKA0117 (antibody, V domains shown, Recombinant rabbit monoclonal from B-cell cloning, expressed in FreeStyle 293-F cells; the first screen used B-cell culture supernatant; also called Anti-SG115 Antibody; rabbit Anti Fc-Mutation Antibody) VH: QSLEESGGDLVKPEGSLTLTCTASGFSFSSSHYMCWVRQAPGKGLEWIACIYAGSSDNTYYASWAKGRFTISKTSSTTVTLQMTSLTAADTATYFCARDTYGYVGYASAGGFFNLWGPGTLVTVSS VL: ALVMTQTPASVSAAVGGTVTINCQASHNIYSVLAWYQQKPGQRPRLLIYGASNLESGVPSRFKGSGSGTEYTLTISDLECDDAATYYCQSAYYSSSTGDNAFGGGTEVVVKG", "binds"),
    ("SKA0141 (antibody, V domains shown, Recombinant rabbit monoclonal from B-cell cloning, expressed in FreeStyle 293-F cells; the first screen used B-cell culture supernatant; also called Anti-SG115 Antibody; rabbit Anti Fc-Mutation Antibody) VH: QSLEESGGDLVKPGASLTLTCTASGFSFSSSYYMCWVRQAPGKGLEWIACIYAGSSGSTYYASWAKGRFTISKTSSTTVTLQMTSLTAADTATYFCARDGDENMLVGGYFNLWGPGTLVTVSS VL: ALVMTQTPSSVSAAVGGTVTINCQASHNIYSNLAWYQQKPGQRPKLLIYGASNLESGVPSRFKGSGSGTEYTLTISDLECDDAATYYCQSAYYSSNAGYNAFGGGTEVVVKG", "binds"),
]
